# target.or.system: BTK-WT (Homo sapiens, UniProt Q06187)
# Construct: purified from insect cells as a full-length construct containing an N-terminal 6X-His tag; His6 (N); made in house; host or cells: insect cells (baculovirus Sf21 in Method B)
# Sequence (Q06187 whole entry): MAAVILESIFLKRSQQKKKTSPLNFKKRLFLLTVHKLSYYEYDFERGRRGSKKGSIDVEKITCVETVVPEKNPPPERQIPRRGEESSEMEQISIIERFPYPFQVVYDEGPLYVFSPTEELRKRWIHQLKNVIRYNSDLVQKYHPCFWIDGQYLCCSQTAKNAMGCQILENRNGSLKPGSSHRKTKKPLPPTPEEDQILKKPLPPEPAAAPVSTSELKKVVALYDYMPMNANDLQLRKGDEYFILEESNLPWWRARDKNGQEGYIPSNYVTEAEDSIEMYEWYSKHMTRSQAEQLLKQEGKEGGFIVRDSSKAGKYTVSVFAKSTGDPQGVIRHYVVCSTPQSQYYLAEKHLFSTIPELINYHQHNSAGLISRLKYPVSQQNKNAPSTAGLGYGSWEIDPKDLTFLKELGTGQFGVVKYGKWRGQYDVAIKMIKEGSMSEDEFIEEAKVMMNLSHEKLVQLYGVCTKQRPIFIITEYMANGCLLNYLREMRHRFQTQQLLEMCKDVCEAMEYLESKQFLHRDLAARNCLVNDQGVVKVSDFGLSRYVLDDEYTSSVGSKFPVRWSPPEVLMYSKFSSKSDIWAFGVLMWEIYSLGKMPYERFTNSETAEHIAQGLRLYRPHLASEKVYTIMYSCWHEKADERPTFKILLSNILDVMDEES
# assay.name: Btk in vitro inhibitory activity (one of Method A TR-FRET, Method B electrophoretic mobility shift, Method C radiometric filter binding)
# Format: biochemical
# measurement.parameters: D-compounds panel data; read-out: IC50 BTK-WT
For each entry below, report its IC50 value.

Previously resolved entries follow.
compound	IC50
C[C@H]1C[C@@H](NC(=O)c2ccc(C3CC3)cc2)CN(c2cnc(C(N)=O)c(Nc3cnn(C)c3)n2)C1 [Example D-30]	≤ 10 nM
C[C@@H]1[C@H](NC(=O)c2ccc(C(C)(C)O)cc2F)CCCN1c1nnc(C(N)=O)c(Nc2cnn(C)c2)n1 [Example D-308]	≤ 10 nM
C[C@@H]1[C@H](NC(=O)N(C)C)CCCN1c1nnc(C(N)=O)c(Nc2cnn(C)c2)n1 [Example D-286]	≤ 10 nM
Cc1cc(Nc2nc(N3CCC[C@@H](n4ccc5cc(C6CC6)ccc5c4=O)C3)cnc2C(N)=O)sn1 [Example D-166]	≤ 10 nM
C[C@@H]1[C@H](NC(=O)c2cnc(C3CC3)cn2)CCCN1c1cnc(C(N)=O)c(Nc2cnn(C)c2)n1 [Example D-205]	≤ 10 nM
C[C@@H]1[C@H](NC(=O)c2ccc(C3CC3)cc2)CCCN1c1cnc(C(N)=O)c(Nc2cnn(C3CCC(F)(F)CC3)c2)n1 [Example D-307]	≤ 10 nM

Count: 6. Required value per item: IC50.
1. C[C@@H]1[C@H](NC(=O)c2ccc(C(C)(C)C)cn2)CCCN1c1cnc(C(N)=O)c(Nc2cnn(C)c2)n1 [Example D-208]
2. C[C@@H]1[C@H](NC(=O)c2ccc(C(C)(C)O)cc2F)CCCN1c1cnc(C(N)=O)c(Nc2cnn(C)c2)n1 [Example D-302]
3. C[C@@H]1[C@H](NC(=O)c2ccc(C3CC3)c(O)c2)CCCN1c1cnc(C(N)=O)c(Nc2cnn(C)c2)n1 [Example D-245]
4. C[C@@H]1[C@H](NC(=O)c2ccc(N(C)C)cc2)CCCN1c1cnc(C(N)=O)c(Nc2cnn(C)c2)n1 [Example D-24]
5. C[C@@H]1C[C@@H](NC(=O)c2ccc(C3CC3)cc2)CN(c2cnc(C(N)=O)c(Nc3cnn(C)c3)n2)C1 [Example D-31]
6. NC(=O)c1ncc(N2CCC[C@@H](NC(=O)c3ccc(C4CC4)cc3F)C2)nc1Nc1cc(-c2ccccc2)ns1 [Example D-3]

Response:
["≤ 10 nM", "≤ 10 nM", "≤ 10 nM", "≤ 10 nM", "10 to 100 nM", "> 10000 nM"]

Count: 2. Required value per item: IC50.
1. C[C@H]1CC[C@H](NC(=O)c2ccc(C3CC3)cc2)CN1c1cnc(C(N)=O)c(Nc2cnn(C)c2)n1 [Example D-144]
2. C[C@@H]1[C@H](NC(=O)c2ccc3nn(C)cc3c2)CCCN1c1cnc(C(N)=O)c(Nc2cnn(C)c2)n1 [Example D-267]

Response:
100 to 1000 nM
≤ 10 nM

----------
# target.or.system: UniProt Q08881
# Sequence (Q08881 whole entry): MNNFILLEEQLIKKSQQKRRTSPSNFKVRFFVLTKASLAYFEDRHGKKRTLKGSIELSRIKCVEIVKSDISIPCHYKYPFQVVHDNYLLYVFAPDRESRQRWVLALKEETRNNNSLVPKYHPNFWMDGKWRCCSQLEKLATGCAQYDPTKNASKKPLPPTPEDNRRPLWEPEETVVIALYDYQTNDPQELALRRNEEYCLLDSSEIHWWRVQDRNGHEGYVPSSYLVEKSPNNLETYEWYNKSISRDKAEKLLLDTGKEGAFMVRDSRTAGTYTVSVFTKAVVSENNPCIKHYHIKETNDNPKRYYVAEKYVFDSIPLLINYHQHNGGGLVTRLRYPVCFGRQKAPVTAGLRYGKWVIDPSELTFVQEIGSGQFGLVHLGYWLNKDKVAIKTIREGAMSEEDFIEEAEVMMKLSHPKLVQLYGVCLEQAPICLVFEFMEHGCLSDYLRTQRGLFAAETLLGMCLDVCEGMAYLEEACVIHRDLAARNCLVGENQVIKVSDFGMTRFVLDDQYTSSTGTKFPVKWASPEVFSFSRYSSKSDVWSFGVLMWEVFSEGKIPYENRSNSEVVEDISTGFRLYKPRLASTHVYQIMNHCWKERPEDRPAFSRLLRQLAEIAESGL
# assay.name: Inhibition of a panel of kinases, in vitro HotSpot kinase assay: ITK
# Type: biochemical
# measurement.parameters: D-compounds panel data; 1 μM ATP
pIC50: −log10 of the molar value.
For each entry below, report its pIC50 value.

Count: 5. Required value per item: pIC50.
1. Cc1cc(Nc2nc(N3C[C@@H](NC(=O)N(C)C)CC[C@H]3C)cnc2C(N)=O)sn1
2. CN1CCN(c2ccc(Nc3nc(N4CCC[C@@H](n5ccc6cc(C7CC7)ccc6c5=O)C4)cnc3C(N)=O)nc2)CC1
3. C[C@@H]1C[C@H](NC(=O)c2ccc(C3CC3)cc2)CN(c2cnc(C(N)=O)c(Nc3cnn(C)c3)n2)C1
4. C[C@@H]1[C@H](NC(=O)c2ccc(C3CC3)cc2F)CCCN1c1cnc(C(N)=O)c(Nc2ccc3ncccc3c2)n1
5. C[C@@H]1[C@H](NC(=O)c2ccc(C3CC3)cc2)CCCN1c1cnc(C(N)=O)c(Nc2ccc(CN3CCOCC3)cc2)n1

Response:
["5.00 to 6.00", "5.00 to 6.00", "< 5.00", "< 5.00", "6.00 to 7.00"]

----------
For each entry below, report its IC50 value.
# target.or.system: UniProtKB Q08881
# assay.name: Inhibition of a panel of kinases, in vitro HotSpot kinase assay: ITK
# Assay type: biochemical
# measurement.parameters: Table 13, A compounds; 1 μM ATP

smiles.record	IC50
CN1CCN(C(=O)c2ccc(Nc3nc(N4CCC[C@@H](n5ccc6cc(C7CC7)ccc6c5=O)C4)cnc3C(N)=O)cc2)CC1	100 to 1000 nM

Count: 5. Required value per item: IC50.
1. Cc1c(Nc2nc(N3CCC[C@@H](NC(=O)c4ccc(C5CC5)cc4)[C@H]3C)cnc2C(N)=O)cnn1C
2. C[C@@H]1[C@H](NC(=O)c2ccc(C3CC3)cc2F)CCCN1c1cnc(C(N)=O)c(Nc2ccc(C3(C)CCN(C4CCCC4)CC3)cc2)n1
3. C[C@@H]1[C@H](n2ccc3cc(C4CC4)ccc3c2=O)CCCN1c1cnc(C(N)=O)c(Nc2ccc(N3CCN(C)CC3)cc2)n1
4. C[C@@H]1[C@H](NC(=O)c2ccc(C3CC3)cc2F)CCCN1c1cnc(C(N)=O)c(Nc2ccc(C(=O)N3CCN(C)CC3)cc2)n1
5. Cc1cc(Nc2nc(N3CCC[C@@H](NC(=O)N4Cc5ccccc5C4=O)C3)cnc2C(N)=O)sn1

Response:
> 10000 nM
10 to 100 nM
100 to 1000 nM
100 to 1000 nM
10 to 100 nM

Query: Endpoint output: IC50 of Cn1cc(Nc2nc(N3CCC[C@@H](n4ccc5cc(C6CC6)ccc5c4=O)C3)cnc2C(N)=O)cn1 . Value?
Response: > 10000 nM

----------
For each entry below, report its IC50 value.
# target.or.system: SRC (Homo sapiens)
# Sequence (P12931 whole entry): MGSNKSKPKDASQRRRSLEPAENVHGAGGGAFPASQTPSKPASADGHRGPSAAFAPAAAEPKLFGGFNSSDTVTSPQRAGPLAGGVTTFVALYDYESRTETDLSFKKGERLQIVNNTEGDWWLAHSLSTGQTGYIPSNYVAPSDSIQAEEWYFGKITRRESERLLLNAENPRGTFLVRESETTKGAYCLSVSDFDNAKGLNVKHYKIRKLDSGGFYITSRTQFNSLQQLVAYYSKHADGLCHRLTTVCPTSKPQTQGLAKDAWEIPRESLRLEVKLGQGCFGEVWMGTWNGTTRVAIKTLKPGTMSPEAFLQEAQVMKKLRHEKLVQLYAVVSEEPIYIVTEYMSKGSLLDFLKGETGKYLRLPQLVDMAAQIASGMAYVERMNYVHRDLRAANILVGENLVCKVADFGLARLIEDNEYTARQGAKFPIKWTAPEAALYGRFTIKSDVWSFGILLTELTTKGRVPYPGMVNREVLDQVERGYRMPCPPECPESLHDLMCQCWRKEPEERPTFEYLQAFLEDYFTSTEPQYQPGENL
# assay.name: Inhibition of a panel of kinases, in vitro HotSpot kinase assay: SRC
# Assay type: biochemical
# measurement.parameters: E compounds, Table 17

molecule	observable	value.reported
C=CC(=O)N[C@@H]1CCCN(c2cnc(C(N)=O)c(Nc3ccc(C4CCN(C5CC5)CC4)cc3)n2)[C@@H]1C [Example E-93]	IC50	≤ 10 nM

Count: 8. Required value per item: IC50.
1. C=CC(=O)N[C@@H]1CCCN(c2cnc(C(N)=O)c(Nc3cc(C)ns3)n2)[C@@H]1C [Example E-97]
2. C[C@@H]1[C@H](NC(=O)c2ccc(C3CC3)cc2)CCCN1c1cnc(C(N)=O)c(Nc2ccc(N3CCN(C)C[C@@H]3C)cc2)n1 [Example E-148]
3. C=CC(=O)N1CCC[C@@H](Nc2cnc(C(N)=O)c(Nc3ccc(C4CCN(C5CCCC5)CC4)cc3)n2)C1 [Example E-108]
4. C=CC(=O)N1CC[C@@H](N(C)c2cnc(C(N)=O)c(Nc3ccc(C4CCN(C5CCCC5)CC4)cc3)n2)C1 [Example E-109]
5. C=CC(=O)N1CC[C@@H](N(C)c2cnc(C(N)=O)c(Nc3ccc(C4(C)CCN(C5CCCC5)CC4)cc3)n2)C1 [Example E-106]
6. C=CC(=O)N1CCC[C@@H](Nc2nnc(C(N)=O)c(Nc3ccc(-c4ncco4)cc3)n2)C1 [Example E-40]
7. C[C@@H]1[C@H](NC(=O)c2ccc(C(C)(C)O)cc2)CCCN1c1cnc(C(N)=O)c(Nc2ccc(C3(C)CCN(C4CC4)CC3)cc2)n1 [Example E-147]
8. C[C@@H]1[C@H](NC(=O)c2ccc(C(=O)N(C)C)cc2)CCCN1c1cnc(C(N)=O)c(Nc2cnn(C)c2)n1 [Example E-138]

Response:
≤ 10 nM
10 to 100 nM
10 to 100 nM
10 to 100 nM
≤ 10 nM
100 to 1000 nM
≤ 10 nM
10 to 100 nM

Count: 2. Required value per item: IC50.
1. C[C@@H]1[C@H](NC(=O)c2cc(C(C)(C)C)nn2C)CCCN1c1cnc(C(N)=O)c(Nc2cnn(C)c2)n1 [Example E-146]
2. C=CC(=O)N1CC[C@@H](N(C)c2cnc(C(N)=O)c(Nc3ccc(C4(C)CCN(C5CC5)CC4)cc3)n2)C1 [Example E-104]

Response:
1. 10 to 100 nM
2. 10 to 100 nM

Count: 2. Required value per item: IC50.
1. C[C@@H]1[C@H](NC(=O)c2noc(C(C)(C)C)n2)CCCN1c1cnc(C(N)=O)c(Nc2cnn(C)c2)n1 [Example E-149]
2. C[C@@H]1[C@H](NC(=O)c2ccc3oc(C4CC4)nc3c2)CCCN1c1cnc(C(N)=O)c(Nc2cnn(C)c2)n1 [Example E-139]

Response:
["1000 to 10000 nM", "10 to 100 nM"]
